Assayed system: Cytochrome P450 3A4 (Homo sapiens)
Measurement description: Cytochrome panel assay with activity outcomes
Conditions used: recombinant CYP, pro-luciferin dealkylation, luminescence, p450-cyp3a4; series mostly up to 57.1 µM
The campaign covered roughly 16,000 compounds. About 5,100 (32%) were called active. Inconclusive results (about 25%) are left out. Calls follow the shape of the dose curve; as a rule, active = well fitted curve in the direction sought with a large enough effect; inconclusive = small, poorly fitted or top-dose-only effect, or effect the other way; inactive = no such curve, though single readings can be large or run the other way. Some of the results follow.
Classes used: 1 for active, 0 for inactive

INSERT INTO assay_data (molecule, assayed_system, qualitative_label) VALUES
  ('Cc1cnc(CNc2cc(-c3ccc(C(=O)N(C)C)cc3)ncn2)cn1', 'Cytochrome P450 3A4 (Homo sapiens)', 0),
  ('CCN1CCCC1CNC(=O)CCNC(=O)c1cc(OC)c(OC)c(OC)c1 (stereo not given)', 'Cytochrome P450 3A4 (Homo sapiens)', 0),
  ('Cc1ccc(S(=O)(=O)Nc2cc(=O)[nH]c3c2CCC3)cc1', 'Cytochrome P450 3A4 (Homo sapiens)', 1),
  ('CN(CCCNC(=O)c1ccc(/C=N/O)nc1)CCCN(C)Cc1ccccc1', 'Cytochrome P450 3A4 (Homo sapiens)', 0),
  ('NC(=S)c1ccc[n+]([C@@H]2O[C@@H](COP(=O)([O-])OP(=O)(O)OC[C@@H]3O[C@@H](n4cnc5c(N)ncnc54)[C@@H](OP(=O)(O)O)[C@H]3O)[C@@H](O)[C@H]2O)c1', 'Cytochrome P450 3A4 (Homo sapiens)', 1),
  ('Cc1cc(=O)[nH]c(-n2[nH]c3c(c2=O)CCCC3)n1', 'Cytochrome P450 3A4 (Homo sapiens)', 0),
  ('CN(CCCNC(=O)c1cccn2c(=O)c3ccccc3nc12)Cc1ccccc1', 'Cytochrome P450 3A4 (Homo sapiens)', 1),
  ('CCOC(=O)c1c(NC(=O)Cn2cc([N+](=O)[O-])cn2)sc2c1CCC2', 'Cytochrome P450 3A4 (Homo sapiens)', 1),
  ('CC[C@H]1C2=C3C(CC[C@H]4C(OCc5ccc(F)cc5C(F)(F)F)OC[C@](C)([C@@H]34)N(C(=O)OC(C)(C)C)C2)C2COC(=O)OCC21 (stereo not given in full)', 'Cytochrome P450 3A4 (Homo sapiens)', 1),
  ('COc1ccc(NC(=O)CN2CCN(CC(=O)Nc3ccccc3Cl)CC2)cc1', 'Cytochrome P450 3A4 (Homo sapiens)', 1),
  ('Cc1ccc(CNC(=O)CN2C(=O)COc3ccc(C)cc32)cc1', 'Cytochrome P450 3A4 (Homo sapiens)', 1),
  ('COc1ccc(NC(=O)CN2c3cccc4cccc(c34)S2(=O)=O)cc1', 'Cytochrome P450 3A4 (Homo sapiens)', 1),
  ('O=c1[nH]n(-c2cccc(Cl)c2)c2ncccc12', 'Cytochrome P450 3A4 (Homo sapiens)', 0),
  ('Cc1cnc(CNc2ncncc2-c2ccc(C(=O)N(C)C)cc2)cn1', 'Cytochrome P450 3A4 (Homo sapiens)', 1),
  ('NC(=O)C1=CN([C@@H]2O[C@@H](COP(=O)(O)OP(=O)(O)OC[C@@H]3O[C@H](n4cnc5c(N)ncnc54)[C@@H](OP(=O)(O)O)[C@@H]3O)[C@H](O)[C@@H]2O)C=CC1', 'Cytochrome P450 3A4 (Homo sapiens)', 0),
  ('O=C(CN1C(=O)C2C3C=CC(C3)C2C1=O)Nc1ccc(C(=O)O)cc1 (stereo not given)', 'Cytochrome P450 3A4 (Homo sapiens)', 0),
  ('Clc1ccccc1-c1ccc2ncnc(NCc3cccnc3)c2c1', 'Cytochrome P450 3A4 (Homo sapiens)', 1),
  ('COc1cccc(-c2ccc3ncnc(NCc4cccnc4)c3c2)c1', 'Cytochrome P450 3A4 (Homo sapiens)', 1),
  ('COc1ccc(NC(C)=O)cc1NC(=O)CN1CCN(CC(=O)Nc2ccccc2Cl)CC1', 'Cytochrome P450 3A4 (Homo sapiens)', 1),
  ('CN(C)c1ccc(-c2cncnc2NCc2cccs2)cc1', 'Cytochrome P450 3A4 (Homo sapiens)', 1);

----------
Assayed system: Cytochrome P450 3A4 (Homo sapiens)
Measurement description: Cytochrome panel assay with activity outcomes
Conditions used: recombinant CYP, pro-luciferin dealkylation, luminescence, p450-cyp3a4; series mostly up to 57.1 µM
In all, about 16,000 compounds went through this assay and about 5,100 (32%) were called active. Another 25% or so got no clear call; they are omitted. The call rests on the fitted dose curve; in most records, active means well fitted curve in the direction sought with a large enough effect; inconclusive means small, poorly fitted or top-dose-only effect, or effect the other way; inactive means no such curve, though single readings can be large or run the other way. Some of the results follow.
Classes used: y for active, n for inactive

INSERT INTO results (compound, qualitative_label) VALUES
  ('O=C(NCc1n[nH]c(=S)n1-c1cccc(Cl)c1)c1ccc(S(=O)(=O)N2CCCC2)cc1', 'y'),
  ('COCc1nnc(NC(=O)c2ccc(S(=O)(=O)N3CCCCCC3)cc2)o1', 'n'),
  ('COCCNC(=O)c1ccc2c(c1)nc(C)n2-c1cc(OC)c(OC)c(OC)c1', 'n'),
  ('COc1ccc(-n2c(=S)[nH]c3cc(C(=O)NCCCN4CCCC4=O)ccc3c2=O)cc1', 'n'),
  ('O=c1c2ccccc2nc2n1C(CSCc1cccc(C(F)(F)F)c1)CS2 (stereo not given)', 'y');

----------
Assayed system: Cytochrome P450 3A4 (Homo sapiens) (UniProt P08684)
Sequence (P08684 whole entry, looked up): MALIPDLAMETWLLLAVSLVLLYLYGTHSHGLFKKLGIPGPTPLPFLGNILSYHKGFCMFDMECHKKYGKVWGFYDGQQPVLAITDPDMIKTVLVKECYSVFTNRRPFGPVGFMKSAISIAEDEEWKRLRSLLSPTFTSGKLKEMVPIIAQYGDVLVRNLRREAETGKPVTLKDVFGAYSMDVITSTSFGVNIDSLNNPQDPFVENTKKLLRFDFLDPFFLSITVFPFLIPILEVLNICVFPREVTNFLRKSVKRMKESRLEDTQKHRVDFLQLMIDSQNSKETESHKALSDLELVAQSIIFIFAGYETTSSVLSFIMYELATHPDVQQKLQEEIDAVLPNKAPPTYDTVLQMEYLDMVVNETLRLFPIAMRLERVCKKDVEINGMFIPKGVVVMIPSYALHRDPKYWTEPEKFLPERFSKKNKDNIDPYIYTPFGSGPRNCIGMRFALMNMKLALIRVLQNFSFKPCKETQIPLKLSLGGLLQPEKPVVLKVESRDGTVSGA
Measurement description: Cytochrome panel assay with activity outcomes
Conditions used: recombinant CYP, pro-luciferin dealkylation, luminescence, p450-cyp3a4; series mostly up to 57.1 µM
Screen size: about 16,000 compounds; about 5,100 (32%) were called active. Roughly 25% stayed inconclusive and do not appear here. Calls come from the whole dose curve; as a rule, active = well fitted curve in the direction sought with a large enough effect; inconclusive = small, poorly fitted or top-dose-only effect, or effect the other way; inactive = no such curve, though single readings can be large or run the other way. The list shows a part of the results.
Classes used: t (active), f (inactive)

INSERT INTO measurements (molecule, qualitative_label) VALUES
  ('COc1ccc(NC(=O)C2(c3ccc(NC(=O)c4ccc(OC(C)=O)cc4)cc3)CCCC2)cc1', 'f'),
  ('Cc1nc2cnc(Nc3ccccc3)nc2n(Cc2cccs2)c1=O', 't'),
  ('O=C(NCc1ccccc1)c1onc(CSc2ccc(F)cc2)c1C(=O)NCCCN1CCOCC1', 't'),
  ('CCOc1ccc(NC(=O)c2ccc(OC)cc2)cc1', 'f'),
  ('CCNc1ncc2nc(-c3cccs3)c(=O)n(Cc3cccs3)c2n1', 't'),
  ('COc1ccc(Oc2ncc3nc(C)c(=O)n(C[C@H]4CCCO4)c3n2)cc1', 't'),
  ('COC(=O)COc1cccc(NC(=O)c2ccc(C)cc2)c1', 't'),
  ('COc1ccc(C(=O)Nc2cc(OC)cc(OC)c2)cc1', 't'),
  ('CC1CCN(CC(=O)Nc2cccc([N+](=O)[O-])c2)CC1', 'f'),
  ('CCNc1ncc2nc(-c3ccc(F)cc3)c(=O)n(CCOC)c2n1', 'f'),
  ('O=C(O)[C@H]1CN(CCCP(=O)(O)O)CCN1', 'f'),
  ('COc1ccc(-c2nc3cnc(Nc4ccccc4)nc3n(Cc3cccs3)c2=O)cc1', 'f'),
  ('NC(=S)Nc1ccc(Oc2ccc(NC(N)=S)cc2)cc1', 't'),
  ('CC(C)N(CCNC(=O)C1CCN(S(=O)(=O)N2CCOCC2)CC1)Cc1ccccc1', 'f'),
  ('c1cncc(CNc2ncnc3ccc(-c4ccoc4)cc23)c1', 't'),
  ('COc1ccc(C(=O)Nc2cc(Cl)ccc2OC(=O)c2ccc(OC)cc2)cc1', 't'),
  ('Cc1noc(C)c1-c1ccc2ncnc(NCc3cccs3)c2c1', 't'),
  ('O=c1cnc2cnc(Oc3cccc(Cl)c3)nc2n1C[C@H]1CCCO1', 'f'),
  ('O=C(NCCc1ccc(Cl)cc1)C1CCN(S(=O)(=O)N2CCC3(CC2)OCCO3)CC1', 't'),
  ('COCCNC(=O)c1onc(CSc2cccc(Cl)c2)c1C(=O)O', 'f'),
  ('C[C@@]1(C(NC(=O)c2ccc(-c3ccccc3)cc2)c2ccc(Cl)cc2)C[C@H]1C1CCCCC1 (stereo not given in full)', 'f'),
  ('CNc1nc(Cl)nc(NC(C)(C)C)n1', 'f'),
  ('COc1cccc(Cn2c(=O)c(-c3ccc(F)cc3)nc3cnc(N4CCNCC4)nc32)c1', 't'),
  ('O=c1c(-c2ccc(F)cc2)nc2cnc(Nc3ccccc3)nc2n1Cc1cccs1', 'f'),
  ('CCNc1ncc2nc(-c3cc(F)cc(F)c3)c(=O)n(CCC#N)c2n1', 'f'),
  ('COCCNC(=O)C1CCN(S(=O)(=O)N2CCC3(CC2)OCCO3)CC1', 'f'),
  ('CCNc1ncc2nc(C)c(=O)n(C[C@H]3CCCO3)c2n1', 'f'),
  ('CCCOc1ccccc1C1CC(=O)NC(C)=C1C(=O)OCC(C)C (stereo not given)', 't'),
  ('COc1ccc(S(=O)(=O)NC2(C(F)(F)F)N=C3SCCN3C2=O)cc1 (stereo not given)', 'f'),
  ('Cc1ccc(N=Nc2c(N)n(-c3ccccc3)[nH]c2=O)cc1', 't'),
  ('Cc1cccc(CNc2ncnc3ccc(-c4ccoc4)cc23)c1', 't'),
  ('O=c1cnc2cnc(Nc3ccccc3)nc2n1Cc1cccs1', 't'),
  ('CCNc1ncc2nc(-c3cccs3)c(=O)n(Cc3ccc(F)cc3)c2n1', 't'),
  ('CCC(C)[C@H](NC(=O)Nc1ccc(Oc2ccccc2)cc1)C(=O)O (stereo not given in full)', 'f'),
  ('COc1cccc(Nc2ncc3nc(-c4cccs4)c(=O)n(Cc4cccs4)c3n2)c1', 'f'),
  ('S=C(S)O[C@@H]1C[C@@H]2C[C@H]1[C@@H]1CCC[C@H]21', 't'),
  ('COc1cccc(-c2nccc(-n3ccnc3)n2)c1', 't'),
  ('c1cncc(-c2cc(-n3ccnc3)ncn2)c1', 't'),
  ('CCNc1ncc2nc(-c3cccs3)c(=O)n(CCC#N)c2n1', 't'),
  ('COc1ccc(-c2nc3cnc(N4CCOCC4)nc3n(C[C@H]3CCCO3)c2=O)cc1', 'f'),
  ('COc1ccc(CN(CCN(C)C)c2ccccn2)cc1', 'f'),
  ('COc1ccc(Oc2ncc3ncc(=O)n(C[C@H]4CCCO4)c3n2)cc1', 't'),
  ('CCNc1ncc2ncc(=O)n(C[C@H]3CCCO3)c2n1', 'f'),
  ('CCCCCCc1c(C[C@H](N)C(=O)O)o[nH]c1=O', 'f'),
  ('CCNc1ncc2nc(-c3ccccc3)c(=O)n(Cc3cccs3)c2n1', 't');
